- Target Desc: HLA-C*07:01
- Experiment Notes: IEDB peptide-MHC binding, purified MHC/direct/fluorescence; filed as Kd, often an IC50 or EC50 that approximates it; bounds were set here for any values at or beyond the usual limits of such assays
- Conditions Used: source organism: Homo sapiens
Quantity Name: Kd (nM)
Express your answer in nM, writing the number without its unit.

**Query** For the sequence shown here, `KRPTPTFHS` , give the reported Kd.
**Result** 1000

* * *

- Target Desc: HLA-B*13:02
- Experiment Notes: IEDB peptide-MHC binding, purified MHC/direct/fluorescence; filed as Kd, often an IC50 or EC50 that approximates it; bounds were set here for any values at or beyond the usual limits of such assays
- Conditions Used: source organism: Homo sapiens
Quantity Name: Kd

**Query** Any idea what Kd was measured for `ELPKYGVKV` ?
**Result** ≥ 10 µM

* * *

- Target Desc: HLA-C*01:02
- Experiment Notes: IEDB peptide-MHC binding, purified MHC/direct/fluorescence; filed as Kd, often an IC50 or EC50 that approximates it; bounds were set here for any values at or beyond the usual limits of such assays
- Conditions Used: source organism: Homo sapiens
Quantity Name: Kd
Include the unit after the number when you answer.

**Query** Which Kd value belongs to `FLPWHRLFL` ?
**Result** 100 nM

* * *

- Target Desc: HLA-A*24:02
- Experiment Notes: IEDB peptide-MHC binding, purified MHC/direct/fluorescence; filed as Kd, often an IC50 or EC50 that approximates it; bounds were set here for any values at or beyond the usual limits of such assays
- Conditions Used: source organism: Homo sapiens
Quantity Name: pKd
Please keep in mind that pKd is minus log10 of the molar concentration; only the number is needed.

**Query** # lookup: pKd of `SYLEQASRI`
**Result** 6.00
